Some molecules, each annotated with its measured IC50.
Target: Aminopeptidase N (Sus scrofa, UniProt P15145)
Sequence (P15145 whole entry): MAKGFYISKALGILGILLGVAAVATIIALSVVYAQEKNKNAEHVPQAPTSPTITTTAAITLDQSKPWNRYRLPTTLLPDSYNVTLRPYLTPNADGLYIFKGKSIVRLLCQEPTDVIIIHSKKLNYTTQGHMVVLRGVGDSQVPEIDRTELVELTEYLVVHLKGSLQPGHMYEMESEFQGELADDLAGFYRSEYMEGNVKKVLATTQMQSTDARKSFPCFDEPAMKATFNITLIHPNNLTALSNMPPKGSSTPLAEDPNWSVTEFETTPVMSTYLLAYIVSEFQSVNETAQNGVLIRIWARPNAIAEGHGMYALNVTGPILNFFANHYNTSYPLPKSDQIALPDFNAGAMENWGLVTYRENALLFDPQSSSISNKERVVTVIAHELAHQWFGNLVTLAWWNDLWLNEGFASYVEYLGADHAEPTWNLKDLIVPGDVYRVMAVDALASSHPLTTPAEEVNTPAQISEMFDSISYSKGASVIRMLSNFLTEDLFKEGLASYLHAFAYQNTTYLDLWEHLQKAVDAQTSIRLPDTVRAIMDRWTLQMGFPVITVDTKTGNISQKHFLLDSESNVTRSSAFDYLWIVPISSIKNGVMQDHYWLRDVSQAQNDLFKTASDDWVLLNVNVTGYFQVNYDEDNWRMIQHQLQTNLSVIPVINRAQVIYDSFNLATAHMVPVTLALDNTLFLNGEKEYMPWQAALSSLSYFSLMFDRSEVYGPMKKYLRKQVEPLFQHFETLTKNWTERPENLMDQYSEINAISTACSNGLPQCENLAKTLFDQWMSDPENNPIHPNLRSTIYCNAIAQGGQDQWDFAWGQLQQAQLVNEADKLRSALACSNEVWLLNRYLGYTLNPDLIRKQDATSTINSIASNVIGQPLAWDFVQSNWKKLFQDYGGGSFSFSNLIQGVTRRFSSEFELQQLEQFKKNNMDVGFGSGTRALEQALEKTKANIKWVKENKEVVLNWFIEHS

{"columns": ["smiles.code", "IC50"],
 "data": [
  ["CC(C)C[C@H](NC(=O)CC(=O)[C@H](N)Cc1ccccc1)C(=O)O", "1.41 µM"],
  ["N[C@H](Cc1ccccc1)C(=O)CC(=O)N[C@H](C(=O)O)c1ccccc1", "3.82 µM"],
  ["COC(=O)[C@H](Cc1ccccc1)NC(=O)CC(=O)[C@H](N)Cc1ccccc1", "7.02 µM"]
]}
